# Tested on: THRa homodimer (NR concentration 90 nM)
# assay.comment: PBM binding z-score (relative to random genomic background probes); higher = stronger binding; sequences stand for … in GC…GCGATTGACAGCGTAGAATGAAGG
Reported PBM binding z-score values for a set of sequences

// below: answered sequences
biosequence	reported.property	result
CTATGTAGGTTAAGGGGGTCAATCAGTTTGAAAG	PBM binding z-score	1.49
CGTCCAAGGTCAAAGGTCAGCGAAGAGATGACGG	PBM binding z-score	2.63

Now examine the next entry.
Exam item: Form: Entry = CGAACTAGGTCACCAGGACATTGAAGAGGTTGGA | System = THRa homodimer (NR concentration 90 nM) | PBM binding z-score = ____
Marked response: 2.06

* * *

Reported PBM binding z-score values for a set of sequences
# Test system: THRa:RXRa (NR concentration 90 nM, RXRa partner concentration 90 nM)
# assay.comment: PBM binding z-score (relative to random genomic background probes); higher = stronger binding; sequences stand for … in GC…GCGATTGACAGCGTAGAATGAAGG
Just the number, please, no unit after it.

// below: answered sequences
biosequence	reported.property	numeric.value
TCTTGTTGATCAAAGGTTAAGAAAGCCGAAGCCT	PBM binding z-score	1.58
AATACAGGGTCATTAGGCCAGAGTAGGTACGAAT	PBM binding z-score	3.28
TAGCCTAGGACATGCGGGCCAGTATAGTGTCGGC	PBM binding z-score	0.348

Exam item: Request the reported PBM binding z-score associated with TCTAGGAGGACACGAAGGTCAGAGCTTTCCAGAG
Marked response: 2.61

Exam item: Request the reported PBM binding z-score associated with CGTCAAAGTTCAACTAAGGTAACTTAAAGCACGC
Marked response: 5.38

Exam item: Request the reported PBM binding z-score associated with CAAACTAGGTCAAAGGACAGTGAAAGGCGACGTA
Marked response: 2.78

* * *

# System: RARb homodimer (NR concentration 270 nM)
# assay.comment: PBM binding z-score (relative to random genomic background probes); higher = stronger binding; sequences stand for … in GC…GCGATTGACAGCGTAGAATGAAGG
reported.property: PBM binding z-score
Just the number, please, no unit after it.

// below: answered sequences
biosequence	PBM binding z-score
CTCGAAAGGTCGTGCTCAGGTGAGTACACCAAAC	2.93
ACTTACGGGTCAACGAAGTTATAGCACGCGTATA	3.02
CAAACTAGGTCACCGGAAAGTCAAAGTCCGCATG	3.86
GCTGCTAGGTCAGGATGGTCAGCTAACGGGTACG	2.65
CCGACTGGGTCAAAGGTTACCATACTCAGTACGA	3.42
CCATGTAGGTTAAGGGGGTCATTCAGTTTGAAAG	4.05
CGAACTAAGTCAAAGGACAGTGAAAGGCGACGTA	1.11
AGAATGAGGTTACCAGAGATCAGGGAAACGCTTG	0.721
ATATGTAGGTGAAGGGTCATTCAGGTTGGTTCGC	3.76
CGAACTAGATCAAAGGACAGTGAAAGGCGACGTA	0.779

Exam item: Request the reported PBM binding z-score associated with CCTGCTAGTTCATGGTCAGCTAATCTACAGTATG
Marked response: 0.96

Exam item: Request the reported PBM binding z-score associated with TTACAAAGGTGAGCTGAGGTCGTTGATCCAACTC
Marked response: 2.56

Exam item: Request the reported PBM binding z-score associated with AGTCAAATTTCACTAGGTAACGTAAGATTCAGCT
Marked response: 0.0165

Exam item: Request the reported PBM binding z-score associated with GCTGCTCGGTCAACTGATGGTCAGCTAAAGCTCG
Marked response: 2.15

Attribution: the supplement of paper PMC6555819
